pIC50: −log10 of the molar value.
// molecules with pIC50 on Tyrosine-protein phosphatase non-receptor type 1 (Homo sapiens), multi-source literature
Recorded metric: pIC50

Some entries whose results are on file:
Nc1nc(NCCO)c2ccc(-c3ccccc3C(F)(F)F)cc2n1 | 5.48
O=C(N[C@H]1CC[C@H](C(F)(F)F)CC1)c1ccc2sc(C(F)(F)P(=O)(O)O)c(Br)c2c1 | 5.25
O=C(O)c1cccc(Nc2nnc(-c3cc(Oc4cccc(C(F)(F)F)c4)cc(Oc4cccc(C(F)(F)F)c4)c3)s2)c1 | 5.40
N#Cc1c(C(F)(F)P(=O)(O)O)sc2ccc(C(=O)Nc3ccccc3)cc12 | 5.95
COC(=O)N[C@@H](Cc1ccccc1)C(=O)N[C@@H](Cc1ccc(NS(=O)(=O)O)cc1)c1csc(C)n1 | 5.94

1 = NC(=O)c1cc(OCC[C@@H]2C[C@H]2C(F)(F)F)c2sc(C(F)(F)P(=O)(O)O)c(Br)c2c1
2 = COc1c(OCCCCc2ccc(Cl)cc2)cc2c(c1C=O)CC(O)OC2=O (stereo not shown)
3 = NC(=O)c1cc(OCc2ccc(C3CC3)cc2Cl)c2sc(C(F)(F)P(=O)(O)O)c(Br)c2c1
4 = CN(C)CCNC(=O)c1cc(OCCCC(F)(F)F)c2sc(C(F)(F)P(=O)(O)O)c(Br)c2c1
5 = Cc1ccc(-c2cc3nc(N)nc(NCCO)c3c3ccn(C)c23)s1
Asked: Descending sort on pIC50 required. List labels; respect the requested ordering.
Given back: 1, 3, 4, 5, 2

1 = CC(C)(C)C(=O)N[C@@H](Cc1ccc(NS(=O)(=O)O)cc1)c1nc(-c2ccccc2)cs1
2 = O=C(O)/C=C/c1ccc(-c2nc(-c3ccc(F)c(F)c3)[nH]c2-c2ccc(/C=C/C(=O)O)cc2)cc1
3 = CC1CCS(=O)(=O)C1CCOc1cc(C(N)=O)cc2c(Br)c(C(F)(F)P(=O)(O)O)sc12 (single isomer, unassigned)
Asked: Please list these in order of increasing pIC50. Thank you! List labels; respect the requested ordering.
Given back: 1, 2, 3

###

pIC50: −log10 of the molar value.
// compounds with pIC50 on UniProt P18031, multi-source literature

Some entries whose results are on file:
Cc1cc(-c2ccc(O)c(N3CC(=O)NS3(=O)=O)c2F)n(C)n1 | ≥ 6.00
Cc1c(C(F)(F)P(=O)(O)O)sc2c(OCCCS(N)(=O)=O)cc(C(N)=O)cc12 | 6.93
CS(=O)(=O)c1ccc(COc2cc(-c3nc[nH]n3)cc3c(Br)c(C(F)(F)P(=O)(O)O)sc23)cc1 | > 8.60

Asked: Sample "NC(=O)c1cc(OCc2cccc3ccccc23)c2sc(C(F)(F)P(=O)(O)O)c(Br)c2c1" — what was its pIC50?
Given back: 6.78

Asked: Next entry: "CC(C)CCN1Cc2cc(N3CC(=O)NS3(=O)=O)c(O)cc2N(C)C1=O"
Given back: ≥ 6.00

Asked: Next entry: "COC(=O)c1ccc2cc(-c3nc(-c4ccc(/C=C/C(=O)O)cc4)c(-c4ccc(/C=C/C(=O)O)cc4)[nH]3)[nH]c2c1"
Given back: 5.52

Asked: Next entry: "O=C1CN(c2c(O)ccc(-c3cnn(-c4ccccc4)c3)c2F)S(=O)(=O)N1"
Given back: ≥ 6.00

Asked: Next entry: O=C1CN(c2c(O)cc3ccc(OCC4CCOC4)nc3c2F)S(=O)(=O)N1 (centres unmarked)
Given back: ≥ 6.00

###

// compounds with IC50 on Tyrosine-protein phosphatase non-receptor type 1 (Homo sapiens, UniProt P18031), multi-source literature
Recorded metric: IC50 (µM)

Some entries whose results are on file:
CS(=O)(=O)N1CC2(CC(NC(=O)c3ccc4sc(C(F)(F)P(=O)(O)O)c(Br)c4c3)C2)C1 | 5.53
O=C(NCc1cnccn1)c1ccc2sc(C(F)(F)P(=O)(O)O)c(Br)c2c1 | 3.56
Cn1ccc2c3c(NCCCO)nc(N)nc3cc(-c3ccccc3C(F)(F)F)c21 | 10.2
Clc1ccc(Nc2nnc(-c3cccc(Oc4cccc(-c5nnn[nH]5)c4)c3)s2)cc1Cl | 5
CNc1nc(N)nc2nc(-c3cccc4ccccc34)ccc12 | 1.15

I = COC(=O)N[C@@H](Cc1ccccc1)C(=O)N[C@@H](Cc1ccc(NS(=O)(=O)O)cc1)c1nc(CC(F)(F)F)cs1
II = NC(=O)c1cc(OCCCC(F)(F)F)c2sc(C(F)(F)P(=O)(O)O)c(Br)c2c1
III = CNC(=O)c1cc(OCCCS(N)(=O)=O)c2sc(C(F)(F)P(=O)(O)O)c(C#N)c2c1
IV = CCc1nc([C@H](Cc2ccc(NS(=O)(=O)O)cc2)NC(=O)[C@H](Cc2ccccc2)NC(=O)OC)sc1C
V = CS(=O)(=O)CCCCOc1cc(C(N)=O)cc2c(Br)c(C(F)(F)P(=O)(O)O)sc12
Asked: Descending sort on IC50 required. List labels; respect the requested ordering.
Given back: I, IV, V, II, III

###

// compounds with IC50 on Tyrosine-protein phosphatase non-receptor type 1 (Homo sapiens), multi-source literature
Recorded metric: IC50 (nM)

Some entries whose results are on file:
NC(=O)c1cc(OCC2C3CC4C(C3)C24)c2sc(C(F)(F)P(=O)(O)O)c(Br)c2c1 (centres unmarked) | 16
Cc1ccc(-c2ccc(O[C@H](Cc3ccccc3)C(=O)O)cc2)n1Cc1ccccc1 | 360
CNc1nc(N)nc2nc(C3(c4ccccc4)CCCCC3)ccc12 | 10800
O=C(O)c1cc(OCCCC(F)(F)F)c2sc(C(F)(F)P(=O)(O)O)c(Br)c2c1 | 191
O=C(O)[C@@H](Cc1ccccc1)Oc1ccc(-c2cccn2-c2ccc(Br)cc2)cc1 | 890

1 = CCn1nccc1NC(=O)c1ccc2sc(C(F)(F)P(=O)(O)O)c(Br)c2c1
2 = COC(=O)N[C@@H](Cc1ccccc1)C(=O)N[C@@H](Cc1ccc(NS(=O)(=O)O)cc1)c1nc2c(s1)CCCC2
3 = O=C(NCc1cccnn1)c1cc(F)c2sc(C(F)(F)P(=O)(O)O)c(Br)c2c1
4 = O=C(N[C@H]1Cc2ccc(F)cc21)c1ccc2sc(C(F)(F)P(=O)(O)O)c(Br)c2c1
Asked: Please list these in order of increasing IC50. Thank you! List labels; respect the requested ordering.
Given back: 2, 3, 1, 4
(2: 89 nM, 3: 361 nM, 1: 2620 nM, 4: 5620 nM)

###

pIC50: −log10 of the molar value.
// molecules with pIC50 on Tyrosine-protein phosphatase non-receptor type 1 (Homo sapiens), multi-source literature

Cc1csc(-c2ccc(O)c(N3CC(=O)NS3(=O)=O)c2F)c1 | ≥ 6.00

Asked: Sample "O=C1CN(c2c(O)ccc(-c3cn(C4CCS(=O)(=O)CC4)cn3)c2F)S(=O)(=O)N1" — what was its pIC50?
Given back: ≥ 6.00

Asked: Next entry: O=C1CN(c2c(O)ccc(-c3cc(C4CC4(F)F)nn3CC(F)F)c2F)S(=O)(=O)N1 (stereo not shown)
Given back: ≥ 6.00

Asked: Next entry: CC(C)CCN1Cc2cc(C3CC(=O)NS3(=O)=O)c(O)cc2CC1=O (stereo not shown)
Given back: < 5.00

Asked: Next entry: "O=C(Nc1ccccc1)c1ccc2sc(C(F)(F)P(=O)(O)O)c(Br)c2c1"
Given back: 5.79

###

// compounds with IC50 on Tyrosine-protein phosphatase non-receptor type 1 (Homo sapiens, UniProt P18031), multi-source literature

Some entries whose results are on file:
CC(C)CCN1CCC=C(c2ccc(O)c(N3CC(=O)NS3(=O)=O)c2F)C1 | ≤ 1000 nM
O=C1C=C(c2cc3cc(-c4cccnc4)cnc3cc2O)S(=O)(=O)N1 | 1000 to 10000 nM
CC(F)(F)CCCOc1cc(C(N)=O)cc2c(Br)c(C(F)(F)P(=O)(O)O)sc12 | 18 nM
O=C(N[C@@H]1[C@@H]2COC[C@@H]21)c1ccc2sc(C(F)(F)P(=O)(O)O)c(Br)c2c1 | 4330 nM
O=C1CN(c2c(O)ccc(-c3cnn(S(=O)(=O)C4CC4)c3)c2F)S(=O)(=O)N1 | ≤ 1000 nM
COCOc1ccc(C2COc3c(ccc4c3CCC(C)(C)O4)C2)c(O)c1 (stereo not shown) | 2300 nM
O=C(NC(c1cccnc1)C(F)(F)F)c1ccc2sc(C(F)(F)P(=O)(O)O)c(Br)c2c1 (stereo not shown) | 1450 nM
Cn1c(=O)c(NCC2(C#N)CC2)cc2cc(N3CC(=O)NS3(=O)=O)c(O)cc21 | ≤ 1000 nM

Asked: Sample "NC(=O)c1cc(OCc2ccc3c(c2)CCS3(=O)=O)c2sc(C(F)(F)P(=O)(O)O)c(Br)c2c1" — what was its IC50?
Given back: 26 nM

Asked: Next entry: "NC(=O)c1cc(OC[C@@H]2CC[C@H]2C(F)(F)F)c2sc(C(F)(F)P(=O)(O)O)c(Br)c2c1"
Given back: 97 nM

Asked: Next entry: "CC(C)CCn1cc(-c2ccc(O)c(N3CC(=O)NS3(=O)=O)c2Cl)cn1"
Given back: ≤ 1000 nM

Asked: Next entry: "Cc1cc(-c2ccc(O)c(N3CC(=O)NS3(=O)=O)c2F)nn1C1CC1"
Given back: ≤ 1000 nM

Asked: Next entry: N#Cc1c(C(F)(F)P(=O)(O)O)sc2c(OCC3CC3(F)F)cc(C(N)=O)cc12 (stereo not shown)
Given back: 13.7 nM

Asked: Next entry: "CC(C)n1cc(-c2ccc(O)c(N3CC(=O)NS3(=O)=O)c2F)cn1"
Given back: ≤ 1000 nM

Asked: Next entry: "O=C1CN(c2c(O)ccc(-c3cnn(C4CN(C5CC5)C4)c3)c2F)S(=O)(=O)N1"
Given back: ≤ 1000 nM

Asked: Next entry: CC(=O)N(C)C1CC=C(c2ccc(O)c(N3CC(=O)NS3(=O)=O)c2F)CC1 (stereo not shown)
Given back: ≤ 1000 nM

Asked: Next entry: "O=C1CN(c2c(O)ccc(C3CCN(S(=O)(=O)C4CC4)CC3)c2F)S(=O)(=O)N1"
Given back: ≤ 1000 nM
